# Experimental System: BTK protein (Homo sapiens)
# Construct: endogenous in cells; host or cells: TMD-8 cells
# Sequence (Q06187 whole entry): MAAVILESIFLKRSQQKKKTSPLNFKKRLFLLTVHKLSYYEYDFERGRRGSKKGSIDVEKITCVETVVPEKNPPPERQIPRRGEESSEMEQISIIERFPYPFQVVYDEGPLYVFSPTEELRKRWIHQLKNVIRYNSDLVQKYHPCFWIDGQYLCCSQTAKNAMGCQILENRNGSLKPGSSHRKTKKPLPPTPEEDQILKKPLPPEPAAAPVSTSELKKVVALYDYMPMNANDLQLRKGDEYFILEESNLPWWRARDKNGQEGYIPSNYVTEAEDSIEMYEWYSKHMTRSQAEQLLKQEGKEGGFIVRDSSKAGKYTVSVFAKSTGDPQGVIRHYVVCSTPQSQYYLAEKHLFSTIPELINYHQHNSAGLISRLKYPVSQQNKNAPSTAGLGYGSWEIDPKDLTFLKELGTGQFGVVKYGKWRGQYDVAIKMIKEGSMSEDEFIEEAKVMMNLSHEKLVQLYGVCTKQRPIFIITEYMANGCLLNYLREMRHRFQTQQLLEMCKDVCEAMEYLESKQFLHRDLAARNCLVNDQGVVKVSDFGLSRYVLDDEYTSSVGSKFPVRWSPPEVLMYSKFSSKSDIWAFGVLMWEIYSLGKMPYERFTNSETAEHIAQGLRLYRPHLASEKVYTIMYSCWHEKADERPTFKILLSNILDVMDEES
# Experiment Summary: Measurement of BTK protein degradation ability in TMD-8 cells (Western blotting)
# Type: cell-based
# Setup Conditions: compound 1 nM, harvested after 24 hours
Item-by-item account of BTK degradation (%) 1 nM
Respond numerically; units are % and should not be typed.

Please review the following examples before continuing.
Cc1cc(-c2ccnc(Nc3ccc(CN4CCC(CN5CCC(c6ccc(N7CCC(=O)NC7=O)cc6)CC5)CC4)cc3)n2)ccc1CNC(=O)c1cn(C(C)(C)C)nn1: 15.0
Cc1cc(-c2ccnc(Nc3ccc(N4CCN(CC5CCN(c6cccc(N7CCC(=O)NC7=O)c6)CC5)CC4)nc3)n2)ccc1CNC(=O)c1cnn(C(C)(C)C)c1: 51.0
Cc1cc(-c2ccnc(Nc3ccc(N4CCN(CC5CCN(C(=O)c6cccc(NC7CCC(=O)NC7=O)c6)CC5)CC4)cc3)n2)ccc1CNC(=O)c1cnn(C(C)C)c1 (centres unmarked): 62.0

Form field - read-out: BTK degradation (%) 1 nM; system: BTK protein (Homo sapiens); submitted item: "Cc1cc(-c2ccnc(Nc3ccc(C4CCN(CC5CCN(c6cccc(N7CCC(=O)NC7=O)c6)CC5)CC4)cc3)n2)ccc1CNC(=O)c1cn(C(C)(C)C)nn1"
43.5

Form field - read-out: BTK degradation (%) 1 nM; system: BTK protein (Homo sapiens); submitted item: Cc1cc(-c2ccnc(Nc3ccc(N4CCC(CN5CCN(c6ccc(NC7CCC(=O)NC7=O)cn6)CC5)CC4)cc3)n2)ccc1CNC(=O)N1CC(OC(C)C)C1 (centres unmarked)
43.3

* * *

# Experimental System: BTK protein (Homo sapiens)
# Construct: endogenous in cells; host or cells: TMD-8 cells
# Experiment Summary: Measurement of BTK protein degradation ability in TMD-8 cells (Western blotting)
# Type: cell-based
# Setup Conditions: compound 10 nM, harvested after 24 hours
Item-by-item account of BTK degradation (%) 10 nM
Respond numerically; units are % and should not be typed.

Cc1cc(-c2ccnc(Nc3ccc(N4CCN(CC5CCN(c6cccc(NC7CCC(=O)NC7=O)c6)CC5)CC4)cc3)n2)ccc1CNC(=O)c1cn(C(C)(C)C)nn1 (centres unmarked): 95.5
Cc1cc(-c2ccnc(Nc3ccc(N4CCN(CC5CCN(c6ccc(NC7CCC(=O)NC7=O)cn6)CC5)CC4)cc3)n2)ccc1CNC(=O)N1CC(OC(C)C)C1 (centres unmarked): 92.0
Cc1cc(-c2ccnc(Nc3ccc(N4CCN(CC5CCN(C(=O)c6cccc(NC7CCC(=O)NC7=O)c6)CC5)CC4)cc3)n2)ccc1CNC(=O)N1CC(OC(C)C)C1 (centres unmarked): 94.5

# next molecule below
Form field - read-out: BTK degradation (%) 10 nM; system: BTK protein (Homo sapiens); submitted item: "Cc1cc(-c2ccnc(Nc3ccc(CN4CCN(CC5CCN(c6cccc(N7CCC(=O)NC7=O)c6)CC5)CC4)cc3)n2)ccc1CNC(=O)N1CC(OC(C)C)C1"
77.0

* * *

# Experimental System: BTK protein (Homo sapiens)
# Construct: endogenous in cells; host or cells: TMD-8 cells
# Experiment Summary: Measurement of BTK protein degradation ability in TMD-8 cells (Western blotting)
# Format: cell-based
# Setup Conditions: compound 100 nM, harvested after 24 hours
Item-by-item account of BTK degradation (%) 100 nM
Respond numerically; units are % and should not be typed.

Please review the following examples before continuing.
Cc1cc(-c2ccnc(Nc3ccc(N4CCN(CC5CCN(c6cccc(N7CCC(=O)NC7=O)c6)CC5)CC4)cc3)n2)ccc1CNC(=O)N1CC(OC(C)C)C1: 99.0
Cc1cc(-c2ccnc(Nc3cnn(C4CCN(CC5CCN(c6ccc7c(c6)C(=O)N(C6CCC(=O)NC6=O)C7=O)CC5)CC4)c3)n2)ccc1CNC(=O)c1cnn(C(C)C)c1 (stereo not drawn): 99.5

Sample Cc1cc(-c2ccnc(Nc3ccc(N4CCN(CC5CN(c6ccc7c(c6)C(=O)N(C6CCC(=O)NC6=O)C7=O)C5)CC4)cc3)n2)ccc1CNC(=O)N1CC(OC(C)C)C1 (stereo not drawn) — what was its BTK degradation (%) 100 nM?
98.5
